Published IC50 for Cyclin-dependent kinase 5 (Homo sapiens, UniProt Q00535), assembled from different documents, is shown next.
Supply the numeric figure in µM, leaving out any unit text.

Reference set, count: 4
Cc1[nH]cnc1-c1nccc2c1[nH]c1ccccc12    5
Nc1nccc(-c2c[nH]c3cccc(O)c23)n1    3.5
O=C(c1ccccc1)N1CCN(c2nnc(Cc3ccccc3)c3ccccc23)CC1    0.276
N#Cc1c(N)cc2[nH]nc(N)c2c1-c1ccccc1    11

# lookup: O=C(Cc1cccc2cnccc12)Nc1ncc(C2CCC2)s1 on Cyclin-dependent kinase 5 (Homo sapiens, UniProt Q00535), IC50 = 0.013

====

Published IC50 for Cyclin-dependent kinase 5 (Homo sapiens, UniProt Q00535), assembled from different documents, is shown next.

Form: compound = CN1CCC(S(=O)(=O)c2ccc3cnc(Nc4ccc(N5CCCS5(=O)=O)cc4)cc3n2)CC1 ; IC50 = < 0.01 µM

Form: compound = Cc1cc(-c2cnc(Nc3ccccn3)s2)nc(OC2CCCCC2)n1 ; IC50 = > 10 µM

Form: compound = COC[C@@H](CC(C)C)NC1=N/C(=C\c2cnc3ncsc3c2)C(=O)N1 ; IC50 = > 10 µM

Form: compound = COc1ccc2[nH]c(-c3cccc(O)c3)c(-c3ccncc3)c2n1 ; IC50 = > 10 µM

====

Published IC50 for Cyclin-dependent kinase 5 (Homo sapiens), assembled from different documents, is shown next.

Reference set, count: 5
COC[C@@H](CC(C)C)NC1=N/C(=C\c2cc3scnc3cn2)C(=O)N1    > 10 µM
O=c1[nH]c2occ(-c3ccc(Br)cc3)c2n2cccc12    > 50 µM
CC(C)n1cnc2ccc3nc(C(=N)NCc4ccccc4)sc3c2c1=O    > 100 µM
O=C1Nc2c(Br)cc([N+](=O)[O-])cc2/C1=C1/Nc2ccccc2C1=O    > 10 µM
CCc1cccc(CC)c1NC(=O)c1nn(C)c2c1CCc1cnc(Nc3ccc(C(=O)NC4CCN(C)CC4)cc3OC(F)(F)F)nc1-2    > 10 µM

# next molecule below
# lookup: COc1ccc2[nH]c(-c3ccccc3)c(-c3ccncc3)c2n1 on Cyclin-dependent kinase 5 (Homo sapiens), IC50 = > 10 µM
